measured_on: hCB1 (Homo sapiens)
Sequence (P21554 whole entry): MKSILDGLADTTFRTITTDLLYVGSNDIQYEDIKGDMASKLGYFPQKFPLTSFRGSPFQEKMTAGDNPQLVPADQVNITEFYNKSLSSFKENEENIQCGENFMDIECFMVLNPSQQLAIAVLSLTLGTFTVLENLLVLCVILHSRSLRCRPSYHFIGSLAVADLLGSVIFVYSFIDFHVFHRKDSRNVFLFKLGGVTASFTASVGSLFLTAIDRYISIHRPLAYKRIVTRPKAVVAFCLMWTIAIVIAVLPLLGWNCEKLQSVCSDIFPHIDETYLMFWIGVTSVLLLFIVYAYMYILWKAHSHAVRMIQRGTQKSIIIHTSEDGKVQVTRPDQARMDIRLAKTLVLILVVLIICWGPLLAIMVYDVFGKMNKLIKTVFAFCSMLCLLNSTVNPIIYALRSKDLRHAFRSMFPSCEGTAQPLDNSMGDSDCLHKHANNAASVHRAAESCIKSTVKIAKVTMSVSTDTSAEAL
procedure_details: bioSensAll ebBRET signaling profiling, hCB1
Type: cell-based
Set-up: host or cells: HEK293SL cells, transient PEI transfection
condition_label: Log [Compound] (M) -4.22186; single replicate values, FigS6a
Please go through the items and note down their GoB hCB1.

What does the data say about its GoB hCB1? Entry: CC(=O)C(c1cccs1)N(C)C(=O)c1cc(C)n(-c2cccc(C(F)(F)F)c2)n1 (centres unmarked) 46.0809

What does the data say about its GoB hCB1? Entry: Cc1nn(Cc2ccc(Cl)cc2)c(C)c1C(=O)OCC1CSc2ccccc2O1 (centres unmarked) 24.5257

What does the data say about its GoB hCB1? Entry: `COC(=O)[C@@H]1[C@@H]2CCC[C@@H]2CN1C(=O)c1cc(C)n(-c2cccc(C(F)(F)F)c2)n1` 99.959

What does the data say about its GoB hCB1? Entry: `Cc1nc(CC2CC2)oc1-c1nc(Cc2cc3c(cc2Br)OCO3)no1` -13.0099

What does the data say about its GoB hCB1? Entry: Cc1cc(C(=O)NC(c2ccccc2)c2ccco2)nn1-c1cccc(C(F)(F)F)c1 (centres unmarked) 46.0629

What does the data say about its GoB hCB1? Entry: Cc1cc(C(=O)NC(c2ccccc2)c2ccco2)nn1-c1cccc(C#N)c1 (centres unmarked) 15.9048

What does the data say about its GoB hCB1? Entry: `Cc1cc(C(=O)N(C)C(c2ccco2)c2ccco2)nn1-c1cccc(C(F)(F)F)c1` -21.3927

What does the data say about its GoB hCB1? Entry: COC(=O)[C@@H]1[C@@H]2CCC[C@@H]2CN1C(=O)c1cc(C)n(-c2cccc(Cl)c2)n1 (racemic) 69.5491
